assayContext: buffer; pH 7.4; 200.0 µM
I'd appreciate it if you could supply solubility kinetic values for the items below.

COc1cc(/C=C/C(=O)OCC(=O)NC(=O)C2COc3ccccc3O2)ccc1OC(F)F (centres undefined) has a reported solubility kinetic of 15.4 µg/mL

Recorded result, N#Cc1cc(Cl)c(NCC2CCCO2)cc1C#N (centres undefined) , solubility kinetic: 18.2 µg/mL

solubility kinetic in this record for "CCOC(=O)c1cccc(C(=O)Nc2nc3ccc(OC)cc3s2)n1" : < 0.3 µg/mL

Lab note: "Cc1ccc(C(=O)N2CCC(C(=O)NC3CCCCCC3)CC2)cc1" gave solubility kinetic of 48.1 µg/mL

# solubility kinetic of COc1ccc(CC(C)Nc2cccc(F)c2)cc1 (centres undefined) = 1 µg/mL

For reference, reported solubility kinetic for CCC(Oc1ccccc1)C(=O)Nc1ccccc1N1CCCC1 (centres undefined) stands at 7.9 µg/mL

The compound listed as "Cc1ccc(-n2c(C)nc3ccsc3c2=O)cc1" shows solubility kinetic equal to > 38.4 µg/mL

Note to self: solubility kinetic recorded for Cl.NCC(O)c1ccc(O)cc1 (centres undefined) was > 28.4 µg/mL

"COc1cccc(/C=C/c2[nH]c(=O)[nH]c(=O)c2[N+](=O)[O-])c1O" has a reported solubility kinetic of > 45.8 µg/mL

Form: compound = "COc1cc(C(=S)N2CCCC2)ccc1OCC(N)=O" ; solubility kinetic = > 44.2 µg/mL

Record "CCOC(=O)NC(=O)c1cn(-c2ccc(OC)cc2)c(=O)[nH]c1=O" . Reported solubility kinetic: 9.1 µg/mL

Item: "CCc1ccc(NC(=S)N2CCN(c3cccc(OC)c3)CC2)cc1" | solubility kinetic: 0.3 µg/mL

Quick note, solubility kinetic for Cc1ccccc1C(=O)OC1CCCN(C)C1.Cl (centres undefined) landed at 39.9 µg/mL

Entry "COc1ccc2nc(NC(=O)c3ccccc3[N+](=O)[O-])sc2c1" , solubility kinetic reported as 3 µg/mL

Recorded result, "N#C/C(=C\c1ccc[nH]1)C(=O)Nc1ccccc1Cl" , solubility kinetic: < 0.2 µg/mL

For Cn1cccc1/C=N\NC(=O)C1COc2ccccc2O1 (centres undefined) the compound record lists solubility kinetic as > 42.8 µg/mL

// recorded solubility kinetic for "COC(=O)CN(C#N)c1nc(NCc2ccccc2)nc(OC)n1" : > 49.2 µg/mL

Field solubility kinetic (entry "N/C(=N\OC(=O)Nc1ccccc1)c1ccno1" ) reads 24.2 µg/mL

Entry "CN(C(=O)/C=C/c1ccco1)c1ccccc1C(=O)O" — recorded solubility kinetic = > 40.7 µg/mL

Form: compound = "O=c1[nH]c(-c2ccccc2)c(-c2ccccc2)nc1[N+](=O)[O-]" ; solubility kinetic = 42.1 µg/mL

For reference, reported solubility kinetic for "Cc1ccc(S(=O)(=O)N2CCN(C(=O)COC(=O)COc3cccc(C(F)(F)F)c3)CC2)c(C)c1" stands at 8.7 µg/mL

Looking up "N#Cc1ccccc1NC(=O)c1cc(=O)c2ccccc2o1" , I see its solubility kinetic listed as 1.9 µg/mL

The compound CC1CCC2(CC1)NC(=O)N(CC(=O)NCCc1ccccc1)C2=O (centres undefined) showed solubility kinetic equal to > 51.5 µg/mL

Query COc1ccccc1NC(=O)COC(=O)C1C2CC3OC(=O)C1C3C2 (centres undefined) yields solubility kinetic of > 51.8 µg/mL

###

assayContext: buffer; pH 7.4; 200.0 µM
What solubility kinetic was measured for each of the following?

// recorded solubility kinetic for "NS(=O)(=O)c1ccc(NNC(=O)c2ccc(Br)o2)c([N+](=O)[O-])c1" : > 60.8 µg/mL

For Cc1cc(C2(O)C(=O)Nc3ccccc32)ccc1F (stereo not given) the molecule record lists solubility kinetic as > 38.6 µg/mL

molecule "N#Cc1ccc(COC(=O)c2ccccn2)cc1" , solubility kinetic observed: 30 µg/mL

Consider "CC1CCN(CC(=O)Nc2ccc(Cl)cc2[N+](=O)[O-])CC1" . Its measured solubility kinetic is 0.9 µg/mL

The molecule listed as "Cc1ccc(C(=O)Nc2ccccc2C(=O)NCc2ccco2)cc1" has a reported solubility kinetic of 4.6 µg/mL

Lab note: measured solubility kinetic of O=Cc1ccc(OCC(=O)NCC2CCCO2)cc1 (stereo not given) was 36.4 µg/mL

// solubility kinetic lookup, molecule = "COc1cc2nc(Cl)nc(N3CCCCC3)c2cc1OC" , result: 1.2 µg/mL

get_value(item= "c1ccc(-n2cccc2)c(N2CCCCC2)c1" , readout=solubility kinetic) returns < 0.2 µg/mL

Lab note: "O=C(NC1CCN(C(=O)Nc2cccc(F)c2)CC1)c1ccco1" gave solubility kinetic of > 49.7 µg/mL

Notebook: "CC(=O)NCCN1C(=O)S/C(=C\c2cccs2)C1=O" , solubility kinetic read as > 44.5 µg/mL

Please fill in: solubility kinetic reported for "CCCc1nnc(SCC(=O)Nc2cc(C)on2)n1CCOC" = > 50.9 µg/mL

Reported solubility kinetic ( CCOC(=O)C1CCCN(C(=O)CSc2nc(C)cc(C)n2)C1 (stereo not given) ) = 41.5 µg/mL

Value of solubility kinetic reported for the molecule "Cc1cc(C)c(C#N)c(SCCN2CCCCC2)n1" is > 41.3 µg/mL

Lab book: solubility kinetic of "O=S(=O)(NCC1CC1)c1ccc(F)c(Cl)c1" noted as > 39.6 µg/mL

Record "C=CCn1c(N)cc(=O)nc1SCC(=O)Nc1ccc(C)cc1" , field solubility kinetic: 14.8 µg/mL

Note to self: solubility kinetic recorded for "CNC(=O)c1cccc2cccc(Sc3ccccc3C(=O)O)c12" was 44.2 µg/mL

Value of measured solubility kinetic for the entry "CCOc1ccc(Nc2cc(C)nc3ccc(C)cc23)cc1" : 40 µg/mL

Sure, the documented solubility kinetic for COC(=O)c1cc(NC(=O)COC(=O)C2COc3ccccc3O2)cc(C(=O)OC)c1 (stereo not given) is 54.7 µg/mL

What the record says about "CC1(C)Cc2c(C#N)c(SCC(=O)O)nc(N3CCOCC3)c2CO1" : solubility kinetic is 52.7 µg/mL

Sure, the documented solubility kinetic for COc1ccc(NC2CC(=O)N(c3cccc([N+](=O)[O-])c3)C2=O)cc1 (stereo not given) is > 51.2 µg/mL

Record "Cc1c(C=O)c2cc(OCc3ccccc3)ccc2n1C" , field solubility kinetic: < 0.6 µg/mL

Entry "Cc1noc(C)c1C(=O)OCC(=O)N(C)C1(C#N)CCCCC1" — recorded solubility kinetic = > 47.9 µg/mL

GET /value?item= "Cc1ccccc1S(=O)(=O)NCc1ccc(N2CCN(C)CC2)cc1" &field=solubility kinetic returns 53.1 µg/mL

Lookup result for "CO/N=C(/COc1ccc(F)cc1)c1ccc(OC)cc1" ; measured solubility kinetic: < 0.6 µg/mL

Documented solubility kinetic of "O=C(c1cc(-c2cccc(O)c2)on1)N1CCCCCC1" : 40.8 µg/mL

###

assayContext: buffer; pH 7.4; 200.0 µM
resultType: log10(solubility kinetic) (log10 of the value in µg/mL)
Form field - Quantity: solubility kinetic; Unit: µg/mL; Scale: log10

The compound listed as "CC(=O)c1ccc(NC(=O)c2cc(=O)[nH]c3ccccc23)cc1" shows log10(solubility kinetic) equal to 0.30

Lab note: measured log10(solubility kinetic) of "CN(CCN1CCOCC1)Cc1nc(-c2cccs2)no1" was 1.65

The compound identified as CC(C)(C)C1CCC(C(=O)Nc2nccs2)CC1 (stereo not given) registered its log10(solubility kinetic) at -0.52

Looking up N#CCNC1CC(=O)N(c2ccc(F)cc2)C1=O (stereo not given) , I see its log10(solubility kinetic) listed as 1.48

The measured log10(solubility kinetic) associated with "CCN1CCc2nc3ccccc3c(C(=O)Nc3ccc(F)cc3)c2C1" reads 0.92

O=C(NC1CC2CCC1C2)c1ccco1 (stereo not given) has a reported log10(solubility kinetic) of 1.42

# log10(solubility kinetic) of "CN(Cc1c(F)cccc1Cl)C(=O)c1cc2ccccc2o1" = 1.09

Sample "COC(CNc1ncnc2sc(-c3ccccc3)cc12)OC" ; log10(solubility kinetic) observed: 1.56

Quick note, log10(solubility kinetic) for "CC(C)c1nc(SCC(=O)Nc2nccs2)c2ccccc2n1" landed at -0.22

Query Cc1ccc2c(c1)N(CC(=O)NCc1ccco1)C(=O)C(C(C)C)O2 (stereo not given) yields log10(solubility kinetic) of 1.36

// "CCN(C(=S)Nc1cccnc1)c1cccc2ccccc12" : log10(solubility kinetic) value = 1.60

###

assayContext: buffer; pH 7.4; 200.0 µM
Provide the reported log10(solubility kinetic) of each item.
Plainly stated, the numbers are log10 of solubility kinetic given in µg/mL.

Please fill in: log10(solubility kinetic) reported for Cc1ccc(C(=O)N2c3ccccc3CC2C)o1 (stereo unspecified) = 1.50

The value of log10(solubility kinetic) measured for the compound "Cc1cc2nc3c(=O)[nH]c(=S)[nH]c3nc2cc1NC(=O)C(F)(F)F" turned out to be 1.43

Documented log10(solubility kinetic) of "CCc1ccc(C(=O)OCC(=O)N2CCCCCC2)cc1" : 1.16

Form: compound = "Cc1ccc(-c2csc3nc[nH]c(=O)c23)c(C)c1" ; log10(solubility kinetic) = 0.38

GET /value?item= "Cc1ccc2oc(=O)cc(CN3CCN(Cc4ccccc4)CC3)c2c1" &field=log10(solubility kinetic) returns 1.29

Per the record, "O=[N+]([O-])c1cccc2c(S(=O)(=O)N3CCCCC3)cccc12" has log10(solubility kinetic) of 0.98

log10(solubility kinetic) reported for this compound "COc1ccc(-c2cn(-c3ccc(C)c(Cl)c3)c(=S)[nH]2)cc1OC" : 1.08
